measured target: Serine/threonine-protein kinase PLK2 (Homo sapiens) (UniProt Q9NYY3);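 also: residual PLK2 kinase activity expressed as percent of uninhibited control, measured in MOPS buffer at pH 7.0 with EDTA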
Sequence (Q9NYY3 whole entry, looked up): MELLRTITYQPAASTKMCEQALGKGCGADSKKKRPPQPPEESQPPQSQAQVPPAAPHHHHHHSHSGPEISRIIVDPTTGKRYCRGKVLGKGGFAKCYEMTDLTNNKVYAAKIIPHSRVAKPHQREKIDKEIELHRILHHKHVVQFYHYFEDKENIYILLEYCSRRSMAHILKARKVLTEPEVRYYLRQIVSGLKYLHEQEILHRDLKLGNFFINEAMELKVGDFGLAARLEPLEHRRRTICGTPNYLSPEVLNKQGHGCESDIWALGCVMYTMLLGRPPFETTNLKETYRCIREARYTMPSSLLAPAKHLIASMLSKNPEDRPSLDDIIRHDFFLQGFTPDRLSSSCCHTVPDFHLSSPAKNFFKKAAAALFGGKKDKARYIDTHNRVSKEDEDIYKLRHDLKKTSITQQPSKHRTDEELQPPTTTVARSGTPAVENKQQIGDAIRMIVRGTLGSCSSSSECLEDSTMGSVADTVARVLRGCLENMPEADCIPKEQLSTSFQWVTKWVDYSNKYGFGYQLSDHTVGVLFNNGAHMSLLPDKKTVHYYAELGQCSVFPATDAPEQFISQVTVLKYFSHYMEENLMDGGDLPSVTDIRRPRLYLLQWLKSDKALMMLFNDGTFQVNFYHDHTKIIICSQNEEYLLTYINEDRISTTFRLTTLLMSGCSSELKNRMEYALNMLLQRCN
condition description: at 1 µM
Description: Millipore: Percentage of residual kinase activity of PLK2 at 1uM relative to control. Control inhibitor: Phosphoric acid* at 0.3uM. Buffer: 8 mM MOPS pH 7.0, 0.2 mM EDTA
measurement name: residual activity (%)

* CN(C)c1ccc(/C=C2\C(=O)Nc3ccccc32)cc1 | 106
* N#C/C(=C(\N)Sc1ccc(N)cc1)c1ccccc1C(F)(F)F | 100
* Nc1n[nH]c2nnc(-c3c(-c4ccccc4)nn4ccccc34)cc12 | 99
* COc1cc2ncnc(Nc3ccc(O)c(Br)c3)c2cc1OC | 93
* Oc1n[nH]c2nnc(-c3c(-c4ccccc4)nn4ccccc34)cc12 | 97
* CCC(=O)Nc1ccc2ncnc(Nc3cccc(Br)c3)c2c1 | 104
* O=c1cc(-c2cccc3c2Sc2ccccc2S3)oc(N2CCOCC2)c1 | 93
* COc1cccc(-c2cc(=O)c3ccccc3o2)c1N | 108
* COc1cc2ncnc(N3CCN(C(=O)Nc4ccc(Oc5ccccc5)cc4)CC3)c2cc1OC | 107
* Cc1cccc(-c2[nH]c(C(C)(C)C)nc2-c2ccc3c(c2)OCO3)n1 | 105
* O=c1c2ccccc2[nH]c(=S)n1CCN1CCC(=C(c2ccc(F)cc2)c2ccc(F)cc2)CC1 | 113
* COc1ccc(C(=O)Nc2sc3c(c2C(N)=O)CCCC3)cc1OC | 98
* Oc1ccc(-c2nc(-c3ccc(F)cc3)c(-c3ccncc3)[nH]2)cc1 | 105

---

measured target: SRSF protein kinase 1 (Homo sapiens)
condition description: at 1 µM
# residual activity per record follows
measurement name: residual activity (%)

* O=C(Nc1cccc(Nc2nccc(Nc3cccc(C(F)(F)F)c3)n2)c1)C1CC1 | 107
* CCOc1cc2ncnc(Nc3cccc(Br)c3)c2cc1OCC | 83
* O=c1cc(-c2cccc3c2Sc2ccccc2S3)oc(N2CCOCC2)c1 | 101
* Oc1n[nH]c2nnc(-c3c(-c4ccccc4)nn4ccccc34)cc12 | 97
* N#Cc1cnc2cnc(NCc3cccnc3)cc2c1Nc1ccc(F)c(Cl)c1 | 100

---

measured target: Receptor-type tyrosine-protein kinase FLT3 (Homo sapiens) (UniProt P36888)
Sequence (P36888 whole entry): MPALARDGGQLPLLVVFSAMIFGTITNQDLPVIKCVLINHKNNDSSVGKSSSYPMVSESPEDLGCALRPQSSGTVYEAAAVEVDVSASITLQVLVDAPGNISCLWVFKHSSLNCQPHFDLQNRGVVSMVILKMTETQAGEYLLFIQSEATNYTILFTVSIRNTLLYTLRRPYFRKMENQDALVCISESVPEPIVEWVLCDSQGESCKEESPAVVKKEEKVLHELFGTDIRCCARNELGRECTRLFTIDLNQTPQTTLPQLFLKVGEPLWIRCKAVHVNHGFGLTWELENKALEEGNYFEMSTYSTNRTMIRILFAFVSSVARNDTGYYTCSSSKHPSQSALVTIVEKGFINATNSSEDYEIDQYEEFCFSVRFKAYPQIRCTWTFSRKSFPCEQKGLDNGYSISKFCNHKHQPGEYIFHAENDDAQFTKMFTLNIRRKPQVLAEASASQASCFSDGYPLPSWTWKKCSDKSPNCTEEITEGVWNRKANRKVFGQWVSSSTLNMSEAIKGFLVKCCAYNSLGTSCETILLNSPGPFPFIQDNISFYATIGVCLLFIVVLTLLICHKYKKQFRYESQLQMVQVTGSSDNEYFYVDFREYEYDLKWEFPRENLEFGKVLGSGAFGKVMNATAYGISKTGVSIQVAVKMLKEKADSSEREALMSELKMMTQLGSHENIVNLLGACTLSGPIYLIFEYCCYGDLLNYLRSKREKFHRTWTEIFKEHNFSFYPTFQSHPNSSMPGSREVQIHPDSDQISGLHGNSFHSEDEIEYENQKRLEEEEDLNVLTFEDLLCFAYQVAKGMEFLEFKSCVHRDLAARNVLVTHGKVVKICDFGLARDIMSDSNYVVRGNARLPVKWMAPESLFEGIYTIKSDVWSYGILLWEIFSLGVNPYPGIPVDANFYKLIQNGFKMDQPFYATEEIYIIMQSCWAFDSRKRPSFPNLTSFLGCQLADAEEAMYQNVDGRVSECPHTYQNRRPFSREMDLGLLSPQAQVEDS
condition description: at 1 µM
Classes (residual activity): class A (below 50%), class B (50% to below 90%), class C (90% or more)

* O=c1c2ccccc2[nH]c(=S)n1CCN1CCC(=C(c2ccc(F)cc2)c2ccc(F)cc2)CC1 | class B
* O=C1c2ccccc2-[n+]2ccc3c([nH]c4ccccc43)c21 | class B
* c1ccc(-c2n[nH]cc2-c2ccnc3ccccc23)nc1 | class A
* O=C1NC(=O)c2cc(Nc3ccc(F)cc3)c(Nc3ccc(F)cc3)cc21 | class C
* Ic1cccc(CSc2nnc(-c3ccncc3)o2)c1 | class A
* NC(=O)c1ccc2[nH]c(-c3ccc(Oc4ccc(Cl)cc4)cc3)nc2c1 | class B
* c1ccc2c(-c3ccncc3)c[nH]c2c1 | class C
* C[C@@H](N)[C@H]1CC[C@H](C(=O)Nc2ccncc2)CC1 | class C
* CCN(CC)C(=O)c1ccc(Nc2nc(OCC3CCCCC3)c3nc[nH]c3n2)cc1 | class A

---

measured target: Inhibitor of nuclear factor kappa-B kinase subunit beta (Homo sapiens)
Sequence (whole entry): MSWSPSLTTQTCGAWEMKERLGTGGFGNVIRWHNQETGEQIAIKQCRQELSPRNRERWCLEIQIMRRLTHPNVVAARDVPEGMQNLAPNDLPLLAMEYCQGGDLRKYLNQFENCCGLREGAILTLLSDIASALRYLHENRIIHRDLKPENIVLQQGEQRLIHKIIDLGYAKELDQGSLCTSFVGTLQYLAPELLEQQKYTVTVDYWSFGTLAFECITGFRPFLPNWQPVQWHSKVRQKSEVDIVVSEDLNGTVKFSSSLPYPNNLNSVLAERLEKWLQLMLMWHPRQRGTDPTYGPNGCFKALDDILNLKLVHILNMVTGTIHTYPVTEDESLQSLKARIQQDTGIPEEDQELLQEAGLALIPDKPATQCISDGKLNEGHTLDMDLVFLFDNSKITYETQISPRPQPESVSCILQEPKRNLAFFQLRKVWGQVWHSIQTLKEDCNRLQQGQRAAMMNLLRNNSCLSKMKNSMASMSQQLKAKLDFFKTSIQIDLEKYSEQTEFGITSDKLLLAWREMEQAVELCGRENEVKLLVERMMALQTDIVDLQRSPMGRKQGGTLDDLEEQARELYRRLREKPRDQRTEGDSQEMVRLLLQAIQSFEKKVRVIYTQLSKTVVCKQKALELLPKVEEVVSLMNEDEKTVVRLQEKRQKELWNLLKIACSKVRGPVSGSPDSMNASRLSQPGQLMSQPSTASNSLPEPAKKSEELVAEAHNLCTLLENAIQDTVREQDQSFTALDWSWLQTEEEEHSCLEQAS
condition description: at 1 µM
# residual activity per record follows
measurement name: residual activity (%)

* COc1cc2ncnc(N3CCN(C(=O)Nc4ccc(Oc5ccccc5)cc4)CC3)c2cc1OC | 113
* COc1ccc(S(=O)(=O)N(CCO)c2ccccc2CN(C)C/C=C/c2ccc(Cl)cc2)cc1 | 115
* CC(=O)O/N=C1\C(=C2\C(=O)Nc3cc(Br)ccc32)Nc2ccccc21 | 101
* COc1ccc(C(=O)Nc2sc3c(c2C(N)=O)CCCC3)cc1OC | 99
* O=C(Nc1cccc(Nc2nccc(Nc3cccc(C(F)(F)F)c3)n2)c1)C1CC1 | 74
* O=c1c2ccccc2[nH]c(=S)n1CCN1CCC(=C(c2ccc(F)cc2)c2ccc(F)cc2)CC1 | 114
* Cc1cc2ncc(-c3ccccc3)nc2cc1C | 101
* Nc1ccc2ncnc(NCCc3ccc(Oc4ccccc4)cc3)c2c1 | 115
* Cn1cnc2cc3c(Nc4cccc(Br)c4)ncnc3cc21 | 95
* O=C1c2ccccc2-[n+]2ccc3c([nH]c4ccccc43)c21 | 113
* CC(=O)c1ccc(N2CCOCC2)cc1O | 104
* COc1cccc(-c2cc(=O)c3ccccc3o2)c1N | 125
* O=Nc1c(-c2c(O)[nH]c3ccccc23)[nH]c2ccccc12 | 87

Cited source: ChEMBL document CHEMBL2218924
